Reported pIC50 values for the following compounds.
- TARGET OR TEST SYSTEM: UniProtKB P25929
- Sequence (P25929 whole entry): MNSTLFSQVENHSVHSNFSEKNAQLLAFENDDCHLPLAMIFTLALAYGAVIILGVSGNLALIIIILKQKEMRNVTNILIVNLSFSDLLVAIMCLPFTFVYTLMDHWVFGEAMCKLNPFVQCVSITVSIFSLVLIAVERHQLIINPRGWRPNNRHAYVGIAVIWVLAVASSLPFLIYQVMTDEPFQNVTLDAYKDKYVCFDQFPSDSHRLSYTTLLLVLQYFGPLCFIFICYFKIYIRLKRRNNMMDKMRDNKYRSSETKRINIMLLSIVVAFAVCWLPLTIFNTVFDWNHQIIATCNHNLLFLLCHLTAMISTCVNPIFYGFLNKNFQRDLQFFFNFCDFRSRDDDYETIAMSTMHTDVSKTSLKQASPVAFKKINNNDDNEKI
- PROCEDURE DETAILS: Binding affinity against human recombinant NPY Y1 receptor in CHO/dhFr- cell membranes using [125I]PYY
pIC50: −log10 of the molar value.
MEASUREMENT KIND: pIC50

>>> value_reported("CCc1sc(CCc2cc(OC3CCCC3)cc(NCc3cc(Cl)cc(NC(=O)OC(C)C)c3)n2)nc1C")
7.96
>>> value_reported("CCc1sc(CCc2cc(N3CCOCC3)cc(NCc3cc(Cl)cc(NC(=O)OC(C)C)c3)n2)nc1C")
8.85
>>> value_reported("CCc1sc(CCc2cc(OCCCc3cccnc3)cc(NCc3cc(Cl)cc(NC(=O)OC(C)C)c3)n2)nc1C")
8.19
>>> value_reported("CCc1sc(CCc2cc(OC(C)COC)cc(NCc3cc(Cl)cc(NC(=O)OC(C)C)c3)n2)nc1C (configuration not stated)")
8.08
>>> value_reported("CCCCCCOc1cc(CCc2nc(C)c(CC)s2)nc(NCc2cc(Cl)cc(NC(=O)OC(C)C)c2)c1")
7.20
>>> value_reported("CCc1sc(CCc2cc(OC(C)C)cc(NCc3cc(Cl)cc(NC(=O)OC(C)C)c3)n2)nc1C")
7.92
>>> value_reported("CCOc1cc(CCc2nc(C)c(CC)s2)nc(NCc2cc(Cl)cc(NC(=O)OC(C)C)c2)c1")
7.48
>>> value_reported("CCCCCOc1cc(CCc2nc(C)c(CC)s2)nc(NCc2cc(Cl)cc(NC(=O)OC(C)C)c2)c1")
7.46
>>> value_reported("CCc1sc(CCc2cc(OC(CC)CC)cc(NCc3cc(Cl)cc(NC(=O)OC(C)C)c3)n2)nc1C")
8.26
>>> value_reported("CCc1sc(CCc2cc(OC3CCCCC3)cc(NCc3cc(Cl)cc(NC(=O)OC(C)C)c3)n2)nc1C")
7.54
>>> value_reported("CCc1sc(CCc2cc(OCCc3ccccc3)cc(NCc3cc(Cl)cc(NC(=O)OC(C)C)c3)n2)nc1C")
7.52
>>> value_reported("CCc1sc(CCc2cc(OCC3(C)CC3)cc(NCc3cc(Cl)cc(NC(=O)OC(C)C)c3)n2)nc1C")
7.77
>>> value_reported("CCc1sc(CCc2cc(OCc3ccccc3)cc(NCc3cc(Cl)cc(NC(=O)OC(C)C)c3)n2)nc1C")
6.63
>>> value_reported("CCc1sc(CCc2cc(OC3CCC3)cc(NCc3cc(Cl)cc(NC(=O)OC(C)C)c3)n2)nc1C")
7.96
>>> value_reported("CCc1sc(CCc2cc(OC3CCOCC3)cc(NCc3cc(Cl)cc(NC(=O)OC(C)C)c3)n2)nc1C")
8.36
>>> value_reported("CCc1sc(CCc2cc(OCC(C)(C)C)cc(NCc3cc(Cl)cc(NC(=O)OC(C)C)c3)n2)nc1C")
7.26
>>> value_reported("CCc1sc(CCc2cc(OC)cc(NCc3cc(Cl)cc(NC(=O)OC(C)C)c3)n2)nc1C")
6.63
>>> value_reported("CC/C=C\\CCOc1cc(CCc2nc(C)c(CC)s2)nc(NCc2cc(Cl)cc(NC(=O)OC(C)C)c2)c1")
8.33
>>> value_reported("CCCCCCCOc1cc(CCc2nc(C)c(CC)s2)nc(NCc2cc(Cl)cc(NC(=O)OC(C)C)c2)c1")
7.14
>>> value_reported("CCCOc1cc(CCc2nc(C)c(CC)s2)nc(NCc2cc(Cl)cc(NC(=O)OC(C)C)c2)c1")
7.77
>>> value_reported("CCc1sc(CCc2cc(OCCCc3ccccc3)cc(NCc3cc(Cl)cc(NC(=O)OC(C)C)c3)n2)nc1C")
7.70
>>> value_reported("CCCCOc1cc(CCc2nc(C)c(CC)s2)nc(NCc2cc(Cl)cc(NC(=O)OC(C)C)c2)c1")
7.80
